Can you tell me selective drug sensitivity score for the items I'm about to list?
Tested on: COG-LL-317
Experiment: selective drug sensitivity score (sDSS, relative to normal bone marrow) (sDSS (score)); higher = more potent and effective on the cell line relative to normal bone marrow cells;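 note: ALL cell lines in 384-well plates, five doses spanning 10,000-fold, each plate scaled between vehicle and 100 µmol/L benzalkonium chloride controls, sDSS an adapted area-under-curve metric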
Settings: 72 h
Number, no unit, nothing else.

For C[C@]12C=CC(=O)C=C1CC[C@@H]1[C@@H]2[C@@H](O)C[C@@]2(C)[C@H]1CC[C@]2(O)C(=O)CO [Prednisolone] (top concentration 10000 nM) the compound record lists selective drug sensitivity score as 2.6

For CC(=O)OC[C@H]1O[C@@H]([S-])[C@H](OC(C)=O)[C@@H](OC(C)=O)[C@@H]1OC(C)=O.CCP(CC)CC.[Au+] [Auranofin] (top concentration 2500 nM) the compound record lists selective drug sensitivity score as 3.44

For NS(=O)(=O)NCCNc1nonc1/C(=N/O)Nc1ccc(F)c(Br)c1 [Epacadostat] (top concentration 10000 nM) the compound record lists selective drug sensitivity score as 1.14

For COc1cc2nccc(Oc3ccc(NC(=O)Nc4cc(C)on4)c(Cl)c3)c2cc1OC [Tivozanib] (top concentration 10000 nM) the compound record lists selective drug sensitivity score as 0.86

For COc1ccc(CCc2nc3cc(-c4c(C)noc4C)ccc3n2C[C@H](C)N2CCOCC2)cc1Cl [SGC-CBP30] (top concentration 25000 nM) the compound record lists selective drug sensitivity score as 5.98

For CC(=O)N(O)CCCCCNC(=O)CCC(=O)N(O)CCCCCNC(=O)CCC(=O)N(O)CCCCCN [Deferoxamine] (top concentration 10000 nM) the compound record lists selective drug sensitivity score as 18.4

For CN1CCN(c2ccc(C(=O)Nc3n[nH]c4ccc(Cc5cc(F)cc(F)c5)cc34)c(NC3CCOCC3)c2)CC1 [Entrectinib] (top concentration 1000 nM) the compound record lists selective drug sensitivity score as -0.7

For O=C(/C=C/c1cccnc1)NCCCCC1CCN(C(=O)c2ccccc2)CC1 [Daporinad] (top concentration 1000 nM) the compound record lists selective drug sensitivity score as 17.7

For CCS(=O)(=O)c1cccc(-c2cc(C(=O)NC3CCN(C)CC3)c(C)c3[nH]c4ncc(C)cc4c23)c1 [TAK-901] (top concentration 1000 nM) the compound record lists selective drug sensitivity score as 11.7

For O=C(Nc1ccc(OC(F)(F)Cl)cc1)c1cnc(N2CC[C@@H](O)C2)c(-c2cc[nH]n2)c1 [Asciminib] (top concentration 1000 nM) the compound record lists selective drug sensitivity score as -0.88

For CCCC(CCC)C(=O)O [Valproic_acid] (top concentration 1000000 nM) the compound record lists selective drug sensitivity score as 0

For Cc1ccc(NC(=O)c2ccc(CN3CCN(C)CC3)cc2)cc1Nc1nc(-c2cccnc2)cs1 [Masitinib] (top concentration 10000 nM) the compound record lists selective drug sensitivity score as 3.32

----------
System: MHH-CALL-3
Test: selective drug sensitivity score (sDSS, relative to normal bone marrow) (sDSS (score)); higher = more potent and effective on the cell line relative to normal bone marrow cells
Settings: 72 h
TEST READOUT: selective drug sensitivity score
Number, no unit, nothing else.

Observed selective drug sensitivity score on MHH-CALL-3, entry CN(C)CC#Cc1ccc(OCCCc2sc(N3CCc4cccc(C(=O)Nc5nc6ccccc6s5)c4C3)nc2C(=O)O)c(F)c1 (top concentration 10000 nM) , equals 19

Observed selective drug sensitivity score on MHH-CALL-3, entry Nc1nc(NC2CC2)cc(-c2cccc(Cl)c2Cl)n1 [TH588] (top concentration 25000 nM) , equals -0.58

Observed selective drug sensitivity score on MHH-CALL-3, entry CC(=O)Nc1ccc(C(=O)Nc2ccccc2N)cc1 [Tacedinaline] (top concentration 1000 nM) , equals 1.58

Observed selective drug sensitivity score on MHH-CALL-3, entry Cc1c(N)nc([C@H](CC(N)=O)NC[C@H](N)C(N)=O)nc1C(=O)N[C@H](C(=O)N[C@H](C)[C@@H](O)[C@H](C)C(=O)N[C@H](C(=O)NCCc1nc(-c2nc(C(=O)NCCC[S+](C)C)cs2)cs1)[C@@H](C)O)[C@@H](O[C@@H]1O[C@@H](CO)[C@@H](O)[C@H](O)[C@@H]1O[C@H]1O[C@H](CO)[C@@H](O)[C@H](OC(N)=O)[C@@H]1O)c1c[nH]cn1 [Bleomycin] (top concentration 10000 nM) , equals 4.14

Observed selective drug sensitivity score on MHH-CALL-3, entry Nc1nc2[nH]cnc2c(=S)[nH]1 [Thioguanine] (top concentration 10000 nM) , equals -1.36

----------
Test system: PF-382
Assay: selective drug sensitivity score (sDSS, relative to normal bone marrow) (sDSS (score)); higher = more potent and effective on the cell line relative to normal bone marrow cells
Details: 72 h
Can you tell me selective drug sensitivity score for the items I'm about to list?
Number, no unit, nothing else.

For CNC(=O)c1cc(COc2nnc(Nc3ccc(Cl)cc3)c3ccoc23)ccn1 [Telatinib] (top concentration 10000 nM) the compound record lists selective drug sensitivity score as 0

For CCC(C)n1ncn(-c2ccc(N3CCN(c4ccc(OCC5COC(Cn6cncn6)(c6ccc(Cl)cc6Cl)O5)cc4)CC3)cc2)c1=O (stereo not given) [Itraconazole] (top concentration 5000 nM) the compound record lists selective drug sensitivity score as 0.38

For CC(=O)c1cnc2ccc(-c3cc(Cl)c(O)c(Cl)c3)nc2c1N[C@H]1CC[C@H](CN(C)C)CC1 [OTS167] (top concentration 1000 nM) the compound record lists selective drug sensitivity score as -2.62

For C[C@@H]1CN(Cc2ccc(F)cc2)[C@@H](C)CN1C(=O)c1cc2c(C(=O)C(=O)N(C)C)cn(C)c2cc1Cl [Talmapimod] (top concentration 10000 nM) the compound record lists selective drug sensitivity score as 0

For CC[C@]1(O)C[C@H]2CN(CCc3c([nH]c4ccccc34)[C@@](C(=O)OC)(c3cc4c(cc3OC)N(C)[C@H]3[C@@](O)(C(=O)OC)[C@H](OC(C)=O)[C@]5(CC)C=CCN6CC[C@]43[C@@H]65)C2)C1 [Vinblastine] (top concentration 1000 nM) the compound record lists selective drug sensitivity score as -5.3

----------
Tested on: ALL-PO
Experiment: selective drug sensitivity score (sDSS, relative to normal bone marrow) (sDSS (score)); higher = more potent and effective on the cell line relative to normal bone marrow cells
Conditions: 72 h
Assign 1 to entries whose selective drug sensitivity score meets or exceeds 3; assign 0 to the rest.

-- ask Assess whether reported selective drug sensitivity score for CC/C(=C(\c1ccc(O)cc1)c1ccc(OCCN(C)C)cc1)c1ccccc1 [4-hydroxytamoxifen] (top concentration 10000 nM) sits at 3 or higher.
-- reply 1

-- ask Assess whether reported selective drug sensitivity score for CC[C@@H]1C(=O)N(C)c2cnc(Nc3ccc(C(=O)N[C@H]4CC[C@H](N5CCN(CC6CC6)CC5)CC4)cc3OC)nc2N1C(C)C [Volasertib] (top concentration 1000 nM) sits at 3 or higher.
-- reply 1

-- ask Assess whether reported selective drug sensitivity score for O=C(c1cccc(Cl)c1F)N1CCN(Cc2cccc(Nc3nccs3)n2)CC1 [MK-8745] (top concentration 10000 nM) sits at 3 or higher.
-- reply 1

-- ask Assess whether reported selective drug sensitivity score for Nc1nc2[nH]cnc2c(=S)[nH]1 [Thioguanine] (top concentration 10000 nM) sits at 3 or higher.
-- reply 1

-- ask Assess whether reported selective drug sensitivity score for CO[C@H]1CC[C@H](N2C(=O)CNc3ncc(-c4ccc(C(C)(C)O)nc4)nc32)CC1 [CC-223] (top concentration 10000 nM) sits at 3 or higher.
-- reply 0

-- ask Assess whether reported selective drug sensitivity score for CCCS(=O)(=O)Nc1ccc(F)c(C(=O)c2c[nH]c3ncc(-c4ccc(Cl)cc4)cc23)c1F [Vemurafenib] (top concentration 10000 nM) sits at 3 or higher.
-- reply 0

----------
Test system: CCRF-CEM
Test: selective drug sensitivity score (sDSS, relative to normal bone marrow) (sDSS (score)); higher = more potent and effective on the cell line relative to normal bone marrow cells
Conditions: 72 h
Assign label 1 to entries whose selective drug sensitivity score meets or exceeds 4; assign label 0 to the rest.

-- ask Assess whether reported selective drug sensitivity score for CCOC(=O)CCNc1cc(N2CCc3ccccc3CC2)nc(-c2ccccn2)n1 [GSK-J4] (top concentration 100000 nM) sits at 4 or higher.
-- reply label 0

-- ask Assess whether reported selective drug sensitivity score for COc1ccc(CCc2nc3cc(-c4c(C)noc4C)ccc3n2C[C@H](C)N2CCOCC2)cc1Cl [SGC-CBP30] (top concentration 25000 nM) sits at 4 or higher.
-- reply label 1

-- ask Assess whether reported selective drug sensitivity score for COc1c(OCCCN2CCOCC2)ccc2c1N=C(NC(=O)c1cnc(N)nc1)N1CCN=C21 [Copanlisib] (top concentration 1000 nM) sits at 4 or higher.
-- reply label 1

-- ask Assess whether reported selective drug sensitivity score for C[C@H](Nc1ncnc2[nH]cnc12)c1cc2ccc(F)cc2nc1-c1ccccn1 [AMG319] (top concentration 1000 nM) sits at 4 or higher.
-- reply label 0

-- ask Assess whether reported selective drug sensitivity score for Cc1c(N)nc([C@H](CC(N)=O)NC[C@H](N)C(N)=O)nc1C(=O)N[C@H](C(=O)N[C@H](C)[C@@H](O)[C@H](C)C(=O)N[C@H](C(=O)NCCc1nc(-c2nc(C(=O)NCCC[S+](C)C)cs2)cs1)[C@@H](C)O)[C@@H](O[C@@H]1O[C@@H](CO)[C@@H](O)[C@H](O)[C@@H]1O[C@H]1O[C@H](CO)[C@@H](O)[C@H](OC(N)=O)[C@@H]1O)c1c[nH]cn1 [Bleomycin] (top concentration 10000 nM) sits at 4 or higher.
-- reply label 0
